Please respond with reported pIC50 for every item in the list.
Target: BACE1 (Homo sapiens (Human), UniProt P56817)
Sequence (P56817 46-501, species assumed): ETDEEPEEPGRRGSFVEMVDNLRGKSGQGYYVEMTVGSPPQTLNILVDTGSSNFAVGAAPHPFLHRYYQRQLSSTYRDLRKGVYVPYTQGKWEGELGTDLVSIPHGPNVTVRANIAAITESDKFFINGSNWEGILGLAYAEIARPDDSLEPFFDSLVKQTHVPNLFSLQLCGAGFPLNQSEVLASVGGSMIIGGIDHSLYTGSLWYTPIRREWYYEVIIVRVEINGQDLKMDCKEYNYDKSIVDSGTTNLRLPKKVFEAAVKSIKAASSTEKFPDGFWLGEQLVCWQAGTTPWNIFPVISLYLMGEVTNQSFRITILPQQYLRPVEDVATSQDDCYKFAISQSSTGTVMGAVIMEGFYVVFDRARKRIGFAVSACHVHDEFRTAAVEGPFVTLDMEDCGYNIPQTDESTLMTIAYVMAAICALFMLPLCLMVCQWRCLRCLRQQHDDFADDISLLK
Experiment: In vitro BACE1 cell-based assay (Aβ40 in conditioned medium, HTRF)
Conditions: Aβ40 in conditioned medium of cells stably expressing APP, 24 h
Give bare numbers, as −log10 of the molar value.

compound="C[C@@]1(c2cc(/C=C(\\F)c3ccc(Cl)cn3)ccc2F)C=CSC(N)=N1 [Example 100]" recorded_value=6.45
compound="COC(=O)[C@H]1C[C@@](C)(c2cc(/C=C(\\F)c3ccc(Cl)cn3)ccc2F)N=C(N)S1 (single isomer, unassigned) [Example 104]" recorded_value=6.33

Kindly review the next compound as well.
For this compound ( CNC(=O)[C@]1(C)C[C@@](C)(c2cc(/C=C(\F)c3ccc(C#N)cn3)ccc2F)N=C(N)S1 [Example 116] ), measured pIC50 is 8.00

----------
Target: BACE1 (Homo sapiens (Human))
Experiment: In vitro BACE1 cell-based assay (Aβ40 in conditioned medium, HTRF)
Conditions: Aβ40 in conditioned medium of cells stably expressing APP, 24 h
Property label: IC50 (nM)
One number for each entry, in nM.

Here is how some compounds turned out for IC50.
compound=C[C@@]1(C(=O)N2CCOCC2)C[C@@](C)(c2cc(/C=C(\F)c3ccc(C#N)cn3)ccc2F)N=C(N)S1 tgt="BACE1 (Homo sapiens (Human))" property_label=IC50 recorded_value=2
compound=C#CCOc1cnc(/C(F)=C/c2ccc(F)c([C@]3(C)C[C@](C)(C(=O)NC)SC(N)=N3)c2)cn1 tgt="BACE1 (Homo sapiens (Human))" property_label=IC50 recorded_value=11
compound=C[C@]1(C(=O)N2CCOCC2)C[C@@](C)(c2cc(/C=C(\F)c3ccc(C#N)cn3)ccc2F)N=C(N)S1 tgt="BACE1 (Homo sapiens (Human))" property_label=IC50 recorded_value=201
compound=C[C@@]1(c2cc(/C=C(\F)c3ccc(C#N)cn3)ccc2F)CCSC(N)=N1 tgt="BACE1 (Homo sapiens (Human))" property_label=IC50 recorded_value=15
compound=COC(=O)[C@]1(C)C[C@@](C)(c2cc(/C=C(\F)c3ccc(Cl)cn3)ccc2F)N=C(N)S1 tgt="BACE1 (Homo sapiens (Human))" property_label=IC50 recorded_value=215

Respectfully, I request IC50 for each entry included below.
1. COC(=O)[C@@H]1C[C@@](C)(c2cc(/C=C(\F)c3ccc(Cl)cn3)ccc2F)N=C(N)S1 (single isomer, unassigned)
2. C[C@@]1(c2cc(/C=C(\F)c3ccc(Cl)cn3)ccc2F)CCSC(N)=N1

377
148

----------
Please go through the items and note down their pIC50.
Biological target: human recombinant BACE2 (Homo sapiens (Human))
Sequence (Q9Y5Z0 63-518): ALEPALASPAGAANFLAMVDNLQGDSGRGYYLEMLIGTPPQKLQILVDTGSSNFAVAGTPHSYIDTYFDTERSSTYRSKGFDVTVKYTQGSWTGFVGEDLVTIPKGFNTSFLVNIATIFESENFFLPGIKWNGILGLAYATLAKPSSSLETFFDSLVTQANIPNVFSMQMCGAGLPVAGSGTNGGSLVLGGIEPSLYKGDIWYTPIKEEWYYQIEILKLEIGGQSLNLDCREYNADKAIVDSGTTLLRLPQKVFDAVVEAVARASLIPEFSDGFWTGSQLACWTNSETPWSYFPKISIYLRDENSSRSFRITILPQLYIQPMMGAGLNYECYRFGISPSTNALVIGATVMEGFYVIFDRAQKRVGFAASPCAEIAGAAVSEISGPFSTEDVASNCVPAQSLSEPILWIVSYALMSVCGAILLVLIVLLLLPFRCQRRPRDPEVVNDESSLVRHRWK
Assay: In vitro enzymatic BACE2 FRET assay
Details: pH 4.5, 1 h pre-incubation, read-out: BACE2 Enzyme IC50
Numbers only, as −log10 of the molar value.

Here's what some known entries look like.
compound=COC(=O)[C@]1(C)C[C@@](C)(c2cc(/C=C(\F)c3ccc(Cl)cn3)ccc2F)N=C(N)S1 tgt="human recombinant BACE2 (Homo sapiens (Human))" recorded_value=7.12
compound=C#CCOc1cnc(/C(F)=C/c2ccc(F)c([C@]3(C)C[C@@](C)(C(=O)N4CCOCC4)SC(N)=N3)c2)cn1 tgt="human recombinant BACE2 (Homo sapiens (Human))" recorded_value=6.45
compound="COC(=O)[C@@H]1C[C@@](C)(c2cc(/C=C(\\F)c3ccc(Cl)cn3)ccc2F)N=C(N)S1 (single isomer, unassigned)" tgt="human recombinant BACE2 (Homo sapiens (Human))" recorded_value=7.31
compound=C[C@@]1(c2cc(/C=C(\F)c3ccc(C#N)cn3)ccc2F)CCSC(N)=N1 tgt="human recombinant BACE2 (Homo sapiens (Human))" recorded_value=6.32
compound="COC(=O)[C@H]1C[C@@](C)(c2cc(/C=C(\\F)c3ccc(Cl)cn3)ccc2F)N=C(N)S1 (single isomer, unassigned)" tgt="human recombinant BACE2 (Homo sapiens (Human))" recorded_value=6.73

Record pIC50 per entry; entries follow.
1. C[C@@]1(c2cc(/C=C(\F)c3ccc(Cl)cn3)ccc2F)C=CSC(N)=N1
2. COC(=O)[C@@]1(C)C[C@@](C)(c2cc(/C=C(\F)c3ccc(Cl)cn3)ccc2F)N=C(N)S1
3. C#CCOc1cnc(/C(F)=C/c2ccc(F)c([C@]3(C)C[C@@](C)(C(=O)NC)SC(N)=N3)c2)cn1
4. COC(=O)[C@]1(C)C[C@@](C)(c2cc(/C=C(\F)c3ccc(C#N)cn3)ccc2F)N=C(N)S1
5. C[C@@]1(c2cc(/C=C(\F)c3ccc(Cl)cn3)ccc2F)CCSC(N)=N1
6. C[C@@]1(C(=O)N2CCOCC2)C[C@@](C)(c2cc(/C=C(\F)c3ccc(C#N)cn3)ccc2F)N=C(N)S1
7. C[C@@]1(c2cc(/C=C(\F)c3ccc(C#N)cn3)ccc2F)C=CSC(N)=N1
8. C[C@]1(C(=O)N2CCOCC2)C[C@@](C)(c2cc(/C=C(\F)c3ccc(C#N)cn3)ccc2F)N=C(N)S1

1: 6.72; 2: 7.05; 3: 6.08; 4: 6.55; 5: 7.19; 6: 6.89; 7: 6.22; 8: 5.83

Hey, quick one: what's pIC50 for each of these?
1. CNC(=O)[C@]1(C)C[C@@](C)(c2cc(/C=C(\F)c3ccc(C#N)cn3)ccc2F)N=C(N)S1
2. C#CCOc1cnc(/C(F)=C/c2ccc(F)c([C@]3(C)C[C@@](C)(C(=O)NCC(F)F)SC(N)=N3)c2)cn1
3. C#CCOc1cnc(/C(F)=C/c2ccc(F)c([C@]3(C)C[C@](C)(C(=O)NC)SC(N)=N3)c2)cn1
4. COC(=O)[C@@]1(C)C[C@@](C)(c2cc(/C=C(\F)c3ccc(C#N)cn3)ccc2F)N=C(N)S1

1. 6.25
2. 6.12
3. 5.88
4. 6.64
